Attribution: patent US20130330346A1

Biological target: T1, Human CXCR2 (human, UniProt P25025 1-360)
T1 sequence: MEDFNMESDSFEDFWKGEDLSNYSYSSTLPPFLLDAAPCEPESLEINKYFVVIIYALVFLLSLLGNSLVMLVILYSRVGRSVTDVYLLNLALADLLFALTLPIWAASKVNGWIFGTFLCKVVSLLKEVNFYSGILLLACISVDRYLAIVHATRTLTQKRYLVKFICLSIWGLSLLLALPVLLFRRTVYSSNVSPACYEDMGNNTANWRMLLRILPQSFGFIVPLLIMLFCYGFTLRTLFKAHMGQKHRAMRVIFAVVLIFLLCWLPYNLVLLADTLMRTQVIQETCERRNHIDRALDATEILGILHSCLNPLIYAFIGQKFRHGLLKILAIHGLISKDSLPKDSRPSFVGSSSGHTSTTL
Test: cell-based or functional assay
Endpoint Name: FLIPR IC50 (GRO-α induced calcium release) (nM)
One number for each entry, in nM.

Examples from the recorded data:
Binder	Reading Unit	Quantitative Readout
CXCR20016 (other, Two different VHH joined by a GlySer linker; also called 137B7-35GS-2B2; not shown: C-terminal c-myc tag and His6 tag coded by pAX100) EVQLVESGGGLVQPGGSVRLSCVASGIIFRLSALGWTRQGPGKAREWVAGINSDGTTNYADPVKGRFTISRDNAKNTIYLHMDMLKPEDTAVYYCASGKYRGQGTQVTVSSGGGGSGGGGSGGGGSGGGGSGGGGSGGGGSGGGGSEVQLVESGGELVQPGGSLRLSCAASGSILTINAMGWYRQAPGKQRELVVRRTRGGSTTYQDSVKGRFTISADIAKKTMYLQMNSLKPEDTAVYYCMLDDRGGVYWGQGTQVTVSS	nM	2.36
CXCR20013 (bispecific antibody, Biparatopic: two VHH joined by a GlySer linker; also called 2B2-35GS-97A9; not shown: C-terminal c-myc tag and His6 tag coded by pAX100) EVQLVESGGELVQPGGSLRLSCAASGSILTINAMGWYRQAPGKQRELVVRRTRGGSTTYQDSVKGRFTISADIAKKTMYLQMNSLKPEDTAVYYCMLDDRGGVYWGQGTQVTVSSGGGGSGGGGSGGGGSGGGGSGGGGSGGGGSGGGGSEVQLVESGGGLVQPGGSLRLSCVASGSIVRINTMGWYRQTPGKQRELVADITSGGNINYIDAVKGRFTISRDNTKNTVYLQMNSLKPEDTAVYYCNAEIVVLVGVWTQRARTGNYWGQGTQVTVSS	nM	2.93
CXCR20014 (bispecific antibody, Biparatopic: two VHH joined by a GlySer linker; also called 97A9-35GS-2B2; 97A9-2B2; not shown: C-terminal c-myc tag and His6 tag coded by pAX100) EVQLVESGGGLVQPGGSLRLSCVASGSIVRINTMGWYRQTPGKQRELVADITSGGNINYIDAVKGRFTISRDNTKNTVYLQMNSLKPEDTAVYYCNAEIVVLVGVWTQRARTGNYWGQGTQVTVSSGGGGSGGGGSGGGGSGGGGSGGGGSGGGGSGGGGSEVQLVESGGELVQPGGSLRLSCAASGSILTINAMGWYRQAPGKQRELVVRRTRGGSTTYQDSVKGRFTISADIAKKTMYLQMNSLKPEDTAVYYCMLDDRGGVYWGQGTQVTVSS	nM	6.84

Give measured FLIPR IC50 (GRO-α induced calcium release) for every item shown.
1. CXCR20020 (bispecific antibody, Biparatopic: two VHH joined by a GlySer linker; also called 127D1-35GS-163D2; 127D1-163D2; not shown: C-terminal c-myc tag and His6 tag coded by pAX100) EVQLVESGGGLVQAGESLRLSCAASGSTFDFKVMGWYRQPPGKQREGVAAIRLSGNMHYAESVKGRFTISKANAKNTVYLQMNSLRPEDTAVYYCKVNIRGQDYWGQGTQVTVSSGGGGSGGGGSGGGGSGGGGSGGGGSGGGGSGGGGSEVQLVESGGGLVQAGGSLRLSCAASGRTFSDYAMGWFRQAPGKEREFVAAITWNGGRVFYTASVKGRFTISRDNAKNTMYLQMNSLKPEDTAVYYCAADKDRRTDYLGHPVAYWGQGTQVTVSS
2. CXCR20031 (bispecific antibody, Biparatopic: two VHH joined by a GlySer linker; also called 2B2-35GS-163E3; not shown: C-terminal c-myc tag and His6 tag coded by pAX100) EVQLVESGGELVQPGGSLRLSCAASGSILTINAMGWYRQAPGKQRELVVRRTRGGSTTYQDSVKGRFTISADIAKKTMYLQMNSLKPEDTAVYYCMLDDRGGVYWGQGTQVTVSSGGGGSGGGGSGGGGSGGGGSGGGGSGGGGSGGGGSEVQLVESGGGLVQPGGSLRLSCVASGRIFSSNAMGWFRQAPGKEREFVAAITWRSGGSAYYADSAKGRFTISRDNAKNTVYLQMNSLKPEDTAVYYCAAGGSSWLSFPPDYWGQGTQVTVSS

a:
[6.98, 15.2]
